Give measured EC50 for each item. Keep answers brief.
system: K562; assay: Cytotoxicity against human K562 cells after 24 hrs by MTT assay; assay type: functional, cell-based; settings: K562, 24 h
// return numeric value only (unit: µM, not printed)

Incoming: Give its EC50 value. Item: Cc1cc(O)cc(O)c1C(=O)O[C@@H]1C[C@@]2(C)C1=C(C=O)[C@@H](O)[C@@H]1CC(C)(C)C[C@@H]12 [DEHYDROARMILLYLORSELLINATE]
Outgoing: 5

Incoming: Then what about the molecule COc1cc(O)c(C(=O)O[C@@H]2C[C@]3(C)[C@H]4CC(C)(C)C[C@H]4C=C(C=O)[C@]23O)c(C)c1Cl [ARMILLARIDIN] ?
Outgoing: 8.9

Incoming: Then what about the molecule COc1cc(C)c(C(=O)O[C@@H]2C[C@]3(C)[C@H]4CC(C)(C)C[C@H]4C=C(C=O)[C@]23O)c(O)c1 [ARMILLARIN] ?
Outgoing: 23.7

Incoming: Then what about the molecule COc1cc(O)c(C(=O)O[C@@H]2C[C@@]3(C)C2=C(C=O)[C@@H](O)[C@@H]2CC(C)(C)C[C@@H]23)c(C)c1Cl [ARNAMIAL] ?
Outgoing: 2.3

Incoming: Then what about the molecule COc1cc(C)c(C(=O)O[C@@H]2C[C@@]3(C)C2=C(C=O)[C@@H](O)[C@@H]2CC(C)(C)C[C@@H]23)c(O)c1 ?
Outgoing: 4.1
